Taken from patent US11414442B2.

assay: Solubility of ARF6 prodrugs in various vehicles (Table 4); assay type: physicochemical; conditions: water, kinetic from dmso stock; diluted from 10 mM solution in DMSO; read-out: Solubility (μM) H2O
Structures can show the parent of a compound that is named as a salt.
endpointLabel: solubility (µM)

In [3]: df
Out[3]:
                                   molecule  measurementunit  obsvalue
0  C[C@H](N)C(=O)Oc1cc([N+](=O)[O-])ccc1-c1cc(=O)[nH]c2c(-c3ccc(Cl)cc3)c(Cc3ccccc3)nn12.O=C(O)C(F)(F)F [Example V]               µM       150
1  NCCCC[C@H](N)C(=O)Oc1cc([N+](=O)[O-])ccc1-c1cc(=O)[nH]c2c(-c3ccc(Cl)cc3)c(Cc3ccccc3)nn12 [NAV-B, dihydrochloride]               µM       400
2  NCC(=O)Oc1cc([N+](=O)[O-])ccc1-c1cc(=O)[nH]c2c(-c3ccc(Cl)cc3)c(Cc3ccccc3)nn12.O=C(O)C(F)(F)F [Example III]               µM       375

---

assay: Solubility in water and PBS pH 7.4 (Tables 1 and 2); format: physicochemical; details: aqueous buffer; Table 1; PBS pH 7.4; read-out: Solubility PBS pH 7.4
endpointLabel: solubility (µM)

                          structureassmiles  resultmodifier  obsvalue
0  N#Cc1ccc(-c2cc(=O)[nH]c3c(-c4ccc(Cl)cc4)c(C(F)(F)F)nn23)c(O)c1               =        11
1  O=c1cc(-c2ccc(C(F)(F)F)cc2O)n2nc(C3CC3)c(-c3ccc(Cl)c(Cl)c3)c2[nH]1               =         6
2  O=c1cc(-c2ccc([N+](=O)[O-])cc2O)n2nc(Cc3ccccc3)c(-c3ccc(Cl)cc3)c2[nH]1               =         8
3  O=c1cc(-c2ccccc2O)n2nc(Cc3ccccc3)c(-c3ccc(Cl)cc3)c2[nH]1               =       1.4
4  O=c1cc(-c2ccccc2O)n2nc(C3CC3)c(-c3ccc(Cl)c(Cl)c3)c2[nH]1               =       1.8
5  N#Cc1ccc(-c2cc(=O)[nH]c3c(-c4ccc(Cl)c(Cl)c4)c(C(F)(F)F)nn23)c(O)c1               =      19.6
6  O=c1cc(-c2ccc(F)cc2O)n2nc(C3CC3)c(-c3ccc(Cl)c(Cl)c3)c2[nH]1               <         1
7  O=c1cc(-c2ccc(F)cc2O)n2nc(Cc3ccccc3)c(-c3ccc(Cl)cc3)c2[nH]1               <         1
8  NCCCC[C@H](N)C(=O)Oc1ccccc1-c1cc(=O)[nH]c2c(-c3ccc(Cl)cc3)c(Cc3ccccc3)nn12               =       144

---

assay: Solubility in water and PBS pH 7.4 (Tables 1 and 2); format: physicochemical; settings: Table 1; water; read-out: Solubility Water
Where a name gives a salt, the structure may show the parent alone.
endpointLabel: solubility (µM)

In [3]: df
Out[3]:
                                   compound  resultmodifier  obsvalue
0  O=c1cc(-c2ccccc2O)n2nc(CN3CCOCC3)c(-c3ccc(Cl)cc3)c2[nH]1               =        56
1  NCCCC[C@H](N)C(=O)Oc1cc([N+](=O)[O-])ccc1-c1cc(=O)[nH]c2c(-c3ccc(Cl)cc3)c(Cc3ccccc3)nn12 [NAV-B, dihydrochloride]               =       425
2  O=c1cc(-c2ccc(F)cc2O)n2nc(Cc3ccccc3)c(-c3ccc(Cl)cc3)c2[nH]1               <         1
3  O=c1cc(-c2ccc(Cl)cc2O)n2nc(Cc3ccccc3)c(-c3ccc(Cl)cc3)c2[nH]1               <         1
4  O=c1cc(-c2ccc(Cl)cc2O)n2nc(C(F)(F)F)c(C3CCCCC3)c2[nH]1               <         1
5  NCCCC[C@H](N)C(=O)Oc1ccccc1-c1cc(=O)[nH]c2c(-c3ccc(Cl)cc3)c(Cc3ccccc3)nn12               =       438
6  N#Cc1ccc(-c2cc(=O)[nH]c3c(-c4ccc(Cl)c(Cl)c4)c(C(F)(F)F)nn23)c(OC(=O)[C@@H](N)CCCCN)c1               >       500
7  O=c1cc(-c2ccccc2O)n2nc(C3CC3)c(-c3ccc(Cl)c(Cl)c3)c2[nH]1               =        29

---

target: ARF6 (Homo sapiens); test: ARF6 inhibition, biochemical fluorometric nucleotide exchange assay; conditions: Table 1; read-out: ARF6 IC50
Sequence (P62330 whole entry, species assumed): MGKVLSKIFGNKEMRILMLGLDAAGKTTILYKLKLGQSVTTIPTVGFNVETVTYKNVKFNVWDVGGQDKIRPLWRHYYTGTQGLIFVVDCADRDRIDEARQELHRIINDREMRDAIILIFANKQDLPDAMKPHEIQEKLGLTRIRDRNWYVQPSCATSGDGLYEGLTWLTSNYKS
The threshold is 5 µM. Values of IC50 beneath it are tagged class 1; values meeting or exceeding it are tagged class 0.

>>> df
                           structureassmiles    class
 0  O=c1cc(-c2ccc(Cl)cc2O)n2nc(CN3CCOCC3)c(-c3ccc(Cl)cc3)c2[nH]1  class 0
 1  N#Cc1ccc(-c2cc(=O)[nH]c3c(-c4ccc(Cl)cc4)c(Cc4ccccc4)nn23)c(O)c1  class 1
 2  N#Cc1ccc(-c2cc(=O)[nH]c3c(-c4ccc(Cl)c(Cl)c4)c(C(F)(F)F)nn23)c(OC(=O)[C@@H](N)CCCCN)c1  class 1
 3  NCCCC[C@H](N)C(=O)Oc1cc(Cl)ccc1-c1cc(=O)[nH]c2c(-c3ccc(Cl)cc3)c(C(F)(F)F)nn12  class 1
 4  O=c1cc(-c2ccc([N+](=O)[O-])cc2O)n2nc(Cc3ccccc3)c(-c3ccc(Cl)cc3)c2[nH]1  class 1
 5  O=c1cc(-c2ccc(Cl)cc2O)n2nc(Cc3ccccc3)c(-c3ccc(Cl)cc3)c2[nH]1  class 0
 6  N#Cc1ccc(-c2cc(=O)[nH]c3c(-c4ccc(Cl)c(Cl)c4)c(C(F)(F)F)nn23)c(O)c1  class 1
 7  Cc1ccc(-c2cc(=O)[nH]c3c(-c4ccc(Cl)cc4)c(Cc4ccccc4)nn23)c(OP(=O)(O)O)c1  class 1
 8  O=c1cc(-c2ccc(C(F)(F)F)cc2O)n2nc(C3CC3)c(-c3ccc(Cl)c(Cl)c3)c2[nH]1  class 1
 9  O=c1cc(-c2ccc([N+](=O)[O-])cc2O)n2nc(C3CC3)c(-c3ccc(Cl)c(Cl)c3)c2[nH]1  class 0
10  O=c1cc(-c2ccc(F)cc2OP(=O)(O)O)n2nc(Cc3ccccc3)c(-c3ccc(Cl)cc3)c2[nH]1  class 0
11  N#Cc1ccc(-c2cc(=O)[nH]c3c(-c4ccc(Cl)c(Cl)c4)c(C4CC4)nn23)c(O)c1  class 1
12  O=c1cc(-c2ccccc2O)n2nc(Cc3ccccc3)c(-c3ccc(Cl)cc3)c2[nH]1  class 0
13  O=c1cc(-c2ccc(F)cc2O)n2nc(Cc3ccccc3)c(-c3ccc(Cl)cc3)c2[nH]1  class 1
14  O=c1cc(-c2ccc(C(F)(F)F)cc2O)n2nc(C(F)(F)F)c(-c3ccc(Cl)c(Cl)c3)c2[nH]1  class 1
15  O=c1cc(-c2ccc(F)cc2O)n2nc(C3CC3)c(-c3ccc(Cl)c(Cl)c3)c2[nH]1  class 1
16  NCCCC[C@H](N)C(=O)Oc1ccccc1-c1cc(=O)[nH]c2c(-c3ccc(Cl)c(Cl)c3)c(C(F)(F)F)nn12  class 0
17  O=c1cc(-c2ccccc2O)n2nc(C(F)(F)F)c(C3CCCCC3)c2[nH]1  class 0
18  NCCCC[C@H](N)C(=O)Oc1ccccc1-c1cc(=O)[nH]c2c(-c3ccc(Cl)cc3)c(Cc3ccccc3)nn12  class 0
19  O=c1cc(-c2ccc(Cl)cc2O)n2nc(C(F)(F)F)c(-c3ccc(Cl)cc3)c2[nH]1  class 1
20  O=c1cc(-c2ccc(F)cc2O)n2nc(C(F)(F)F)c(-c3ccc(Cl)c(Cl)c3)c2[nH]1  class 1
21  O=c1cc(-c2ccc(C(F)(F)F)cc2O)n2nc(Cc3ccccc3)c(-c3ccc(Cl)cc3)c2[nH]1  class 0
22  O=c1cc(-c2ccc(Cl)cc2O)n2nc(C3CC3)c(-c3ccc(Cl)c(Cl)c3)c2[nH]1  class 0
23  O=c1cc(-c2ccc(F)cc2O)n2nc(C(F)(F)F)c(-c3ccc(Cl)cc3)c2[nH]1  class 0
24  N#Cc1ccc(-c2cc(=O)[nH]c3c(-c4ccc(Cl)cc4)c(Cc4ccccc4)nn23)c(OC(=O)[C@@H](N)CCCCN)c1  class 1
25  N#Cc1ccc(-c2cc(=O)[nH]c3c(-c4ccc(Cl)c(Cl)c4)c(C4CC4)nn23)c(OC(=O)[C@@H](N)CCCCN)c1  class 1
